system: Mycobacterium tuberculosis Erdman (autoluminescent); test: GRinf, maximum normalised growth rate inhibition (three-drug combination) (unitless (-1 to 1)); higher = less effect (negative = killing); settings: in vitro model: valerate; time point: terminal (~4-5 doublings, model-specific)
measured parameter: GRinf
Numbers only.

Past entries and their recorded results:
COc1nc2ccc(Br)cc2cc1[C@@H](c1ccccc1)[C@@](O)(CCN(C)C)c1cccc2ccccc12 [bedaquiline] + NC(=O)c1cnccn1 [pyrazinamide] + CO[C@H]1/C=C/O[C@@]2(C)Oc3c(C)c(O)c4c(O)c(c(/C=N/N5CCN(C6CCCC6)CC5)c(O)c4c3C2=O)NC(=O)/C(C)=C\C=C\[C@H](C)[C@H](O)[C@@H](C)[C@@H](O)[C@@H](C)[C@H](OC(C)=O)[C@@H]1C [rifapentine]; -0.182
COc1nc2ccc(Br)cc2cc1[C@@H](c1ccccc1)[C@@](O)(CCN(C)C)c1cccc2ccccc12 [bedaquiline] + CC[C@@H](CO)NCCN[C@@H](CC)CO [ethambutol] + CO[C@H]1/C=C/O[C@@]2(C)Oc3c(C)c(O)c4c(O)c(c(/C=N/N5CCN(C)CC5)c(O)c4c3C2=O)NC(=O)/C(C)=C\C=C\[C@H](C)[C@H](O)[C@@H](C)[C@@H](O)[C@@H](C)[C@H](OC(C)=O)[C@@H]1C [rifampicin]; -0.0659

Next up:
Indicate the recorded GRinf value for this compound: NNC(=O)c1ccncc1 [isoniazid] + CC(=O)NC[C@H]1CN(c2ccc(N3CCOCC3)c(F)c2)C(=O)O1 [linezolid] + CO[C@H]1/C=C/O[C@@]2(C)Oc3c(C)c(O)c4c(O)c(c(/C=N/N5CCN(C6CCCC6)CC5)c(O)c4c3C2=O)NC(=O)/C(C)=C\C=C\[C@H](C)[C@H](O)[C@@H](C)[C@@H](O)[C@@H](C)[C@H](OC(C)=O)[C@@H]1C [rifapentine] 0.0271

====

test system: Mycobacterium tuberculosis Erdman (autoluminescent); assay: total FIC90 (Loewe) at 90% inhibition, three-drug combination (log2); higher = more antagonistic; settings: in vitro model: standard 7H9 glycerol; time point: constant = terminal
Param threshold (0.2) applies to total FIC90; output satisfied when value >= threshold, not satisfied when value < threshold.

Reported total FIC90 reaches at least 0.2 for COc1nc2ccc(Br)cc2cc1[C@@H](c1ccccc1)[C@@](O)(CCN(C)C)c1cccc2ccccc12 [bedaquiline] + NNC(=O)c1ccncc1 [isoniazid] + CC(=O)NC[C@H]1CN(c2ccc(N3CCOCC3)c(F)c2)C(=O)O1 [linezolid] ? not satisfied

Reported total FIC90 reaches at least 0.2 for CC[C@@H](CO)NCCN[C@@H](CC)CO [ethambutol] + CC(=O)NC[C@H]1CN(c2ccc(N3CCOCC3)c(F)c2)C(=O)O1 [linezolid] + COc1c(N2C[C@@H]3CCCN[C@@H]3C2)c(F)cc2c(=O)c(C(=O)O)cn(C3CC3)c12 ? satisfied

Reported total FIC90 reaches at least 0.2 for CC(=O)NC[C@H]1CN(c2ccc(N3CCOCC3)c(F)c2)C(=O)O1 [linezolid] + O=[N+]([O-])c1cn2c(n1)OC[C@@H](OCc1ccc(OC(F)(F)F)cc1)C2 [pretomanid] + CO[C@H]1/C=C/O[C@@]2(C)Oc3c(C)c(O)c4c(O)c(c(/C=N/N5CCN(C)CC5)c(O)c4c3C2=O)NC(=O)/C(C)=C\C=C\[C@H](C)[C@H](O)[C@@H](C)[C@@H](O)[C@@H](C)[C@H](OC(C)=O)[C@@H]1C [rifampicin] ? not satisfied

====

system: Mycobacterium tuberculosis Erdman (autoluminescent); assay: total FIC90 (Loewe) at 90% inhibition, three-drug combination (log2); higher = more antagonistic; conditions: in vitro model: standard 7H9 glycerol; time point: constant = terminal
measured parameter: total FIC90
One number for each entry.

NNC(=O)c1ccncc1 [isoniazid] + COc1c(N2C[C@@H]3CCCN[C@@H]3C2)c(F)cc2c(=O)c(C(=O)O)cn(C3CC3)c12 [moxifloxacin] + CO[C@H]1/C=C/O[C@@]2(C)Oc3c(C)c(O)c4c(O)c(c(/C=N/N5CCN(C6CCCC6)CC5)c(O)c4c3C2=O)NC(=O)/C(C)=C\C=C\[C@H](C)[C@H](O)[C@@H](C)[C@@H](O)[C@@H](C)[C@H](OC(C)=O)[C@@H]1C [rifapentine]; 0.752

Indicate the recorded total FIC90 value for this compound: CC(C)/N=c1\cc2n(-c3ccc(Cl)cc3)c3ccccc3nc-2cc1Nc1ccc(Cl)cc1 [clofazimine] + CC[C@@H](CO)NCCN[C@@H](CC)CO [ethambutol] + COc1c(N2C[C@@H]3CCCN[C@@H]3C2)c(F)cc2c(=O)c(C(=O)O)cn(C3CC3)c12 [moxifloxacin] 0.732

====

test system: Mycobacterium tuberculosis Erdman (autoluminescent); experiment: AUC25, normalised area under dose response up to IC25 (fraction (0-1)); higher = more potent at low dose; settings: in vitro model: valerate; time point: terminal (~4-5 doublings, model-specific)
Param threshold (0.06) applies to AUC25; output condition met when value >= threshold, condition not met when value < threshold.

CC[C@@H](CO)NCCN[C@@H](CC)CO [ethambutol] + CO[C@H]1/C=C/O[C@@]2(C)Oc3c(C)c(O)c4c(O)c(c(/C=N/N5CCN(C)CC5)c(O)c4c3C2=O)NC(=O)/C(C)=C\C=C\[C@H](C)[C@H](O)[C@@H](C)[C@@H](O)[C@@H](C)[C@H](OC(C)=O)[C@@H]1C; condition not met
CC(C)/N=c1\cc2n(-c3ccc(Cl)cc3)c3ccccc3nc-2cc1Nc1ccc(Cl)cc1 [clofazimine] + COc1c(N2C[C@@H]3CCCN[C@@H]3C2)c(F)cc2c(=O)c(C(=O)O)cn(C3CC3)c12 [moxifloxacin]; condition met
COc1nc2ccc(Br)cc2cc1[C@@H](c1ccccc1)[C@@](O)(CCN(C)C)c1cccc2ccccc12 [bedaquiline] + CO[C@H]1/C=C/O[C@@]2(C)Oc3c(C)c(O)c4c(O)c(c(/C=N/N5CCN(C)CC5)c(O)c4c3C2=O)NC(=O)/C(C)=C\C=C\[C@H](C)[C@H](O)[C@@H](C)[C@@H](O)[C@@H](C)[C@H](OC(C)=O)[C@@H]1C [rifampicin]; condition not met
COc1nc2ccc(Br)cc2cc1[C@@H](c1ccccc1)[C@@](O)(CCN(C)C)c1cccc2ccccc12 [bedaquiline] + NNC(=O)c1ccncc1 [isoniazid]; condition not met
CC(C)/N=c1\cc2n(-c3ccc(Cl)cc3)c3ccccc3nc-2cc1Nc1ccc(Cl)cc1 [clofazimine] + O=[N+]([O-])c1cn2c(n1)OC[C@@H](OCc1ccc(OC(F)(F)F)cc1)C2 [pretomanid]; condition met

Reported AUC25 reaches at least 0.06 for COc1c(N2C[C@@H]3CCCN[C@@H]3C2)c(F)cc2c(=O)c(C(=O)O)cn(C3CC3)c12 [moxifloxacin] + CO[C@H]1/C=C/O[C@@]2(C)Oc3c(C)c(O)c4c(O)c(c(/C=N/N5CCN(C)CC5)c(O)c4c3C2=O)NC(=O)/C(C)=C\C=C\[C@H](C)[C@H](O)[C@@H](C)[C@@H](O)[C@@H](C)[C@H](OC(C)=O)[C@@H]1C ? condition not met

Reported AUC25 reaches at least 0.06 for CC(C)/N=c1\cc2n(-c3ccc(Cl)cc3)c3ccccc3nc-2cc1Nc1ccc(Cl)cc1 [clofazimine] + NNC(=O)c1ccncc1 [isoniazid] ? condition met

====

tested on: Mycobacterium tuberculosis Erdman (autoluminescent); assay: FIC50 (Loewe) at 50% inhibition (log2); higher = more antagonistic; settings: in vitro model: valerate; time point: terminal (~4-5 doublings, model-specific)
measured parameter: FIC50
One number for each entry.

COc1nc2ccc(Br)cc2cc1[C@@H](c1ccccc1)[C@@](O)(CCN(C)C)c1cccc2ccccc12 [bedaquiline] + COc1c(N2C[C@@H]3CCCN[C@@H]3C2)c(F)cc2c(=O)c(C(=O)O)cn(C3CC3)c12 [moxifloxacin]; 0.485
CC(C)/N=c1\cc2n(-c3ccc(Cl)cc3)c3ccccc3nc-2cc1Nc1ccc(Cl)cc1 [clofazimine] + CC[C@@H](CO)NCCN[C@@H](CC)CO [ethambutol]; 0.0811
CC(=O)NC[C@H]1CN(c2ccc(N3CCOCC3)c(F)c2)C(=O)O1 [linezolid] + COc1c(N2C[C@@H]3CCCN[C@@H]3C2)c(F)cc2c(=O)c(C(=O)O)cn(C3CC3)c12 [moxifloxacin]; 0.36
CC(=O)NC[C@H]1CN(c2ccc(N3CCOCC3)c(F)c2)C(=O)O1 [linezolid] + NC(=O)c1cnccn1 [pyrazinamide]; -0.271

Next up:
Please indicate recorded FIC50 of CC[C@@H](CO)NCCN[C@@H](CC)CO [ethambutol] + O=[N+]([O-])c1cn2c(n1)OC[C@@H](OCc1ccc(OC(F)(F)F)cc1)C2 [pretomanid] measured with Mycobacterium tuberculosis Erdman (autoluminescent). 0.115

====

test system: Mycobacterium tuberculosis Erdman (autoluminescent); experiment: AUC25, normalised area under dose response up to IC25 (fraction (0-1)); higher = more potent at low dose; conditions: in vitro model: acidic pH 5.7; time point: constant (~7 days, model-specific)
Param threshold (0.1) applies to AUC25; output True when value >= threshold, False when value < threshold.

// known answers, use as guide
COc1nc2ccc(Br)cc2cc1[C@@H](c1ccccc1)[C@@](O)(CCN(C)C)c1cccc2ccccc12 [bedaquiline] + CC(=O)NC[C@H]1CN(c2ccc(N3CCOCC3)c(F)c2)C(=O)O1 [linezolid]; False
CC[C@@H](CO)NCCN[C@@H](CC)CO [ethambutol] + CO[C@H]1/C=C/O[C@@]2(C)Oc3c(C)c(O)c4c(O)c(c(/C=N/N5CCN(C6CCCC6)CC5)c(O)c4c3C2=O)NC(=O)/C(C)=C\C=C\[C@H](C)[C@H](O)[C@@H](C)[C@@H](O)[C@@H](C)[C@H](OC(C)=O)[C@@H]1C [rifapentine]; False
COc1c(N2C[C@@H]3CCCN[C@@H]3C2)c(F)cc2c(=O)c(C(=O)O)cn(C3CC3)c12 [moxifloxacin] + CO[C@H]1/C=C/O[C@@]2(C)Oc3c(C)c(O)c4c(O)c(c(/C=N/N5CCN(C6CCCC6)CC5)c(O)c4c3C2=O)NC(=O)/C(C)=C\C=C\[C@H](C)[C@H](O)[C@@H](C)[C@@H](O)[C@@H](C)[C@H](OC(C)=O)[C@@H]1C [rifapentine]; False
COc1c(N2C[C@@H]3CCCN[C@@H]3C2)c(F)cc2c(=O)c(C(=O)O)cn(C3CC3)c12 [moxifloxacin] + NC(=O)c1cnccn1 [pyrazinamide]; True
COc1nc2ccc(Br)cc2cc1[C@@H](c1ccccc1)[C@@](O)(CCN(C)C)c1cccc2ccccc12 [bedaquiline] + CC(C)/N=c1\cc2n(-c3ccc(Cl)cc3)c3ccccc3nc-2cc1Nc1ccc(Cl)cc1 [clofazimine]; True

Reported AUC25 reaches at least 0.1 for COc1nc2ccc(Br)cc2cc1[C@@H](c1ccccc1)[C@@](O)(CCN(C)C)c1cccc2ccccc12 [bedaquiline] + NC(=O)c1cnccn1 [pyrazinamide] ? False

Reported AUC25 reaches at least 0.1 for CC[C@@H](CO)NCCN[C@@H](CC)CO [ethambutol] + O=[N+]([O-])c1cn2c(n1)OC[C@@H](OCc1ccc(OC(F)(F)F)cc1)C2 [pretomanid] ? True

Reported AUC25 reaches at least 0.1 for NNC(=O)c1ccncc1 [isoniazid] + CO[C@H]1/C=C/O[C@@]2(C)Oc3c(C)c(O)c4c(O)c(c(/C=N/N5CCN(C6CCCC6)CC5)c(O)c4c3C2=O)NC(=O)/C(C)=C\C=C\[C@H](C)[C@H](O)[C@@H](C)[C@@H](O)[C@@H](C)[C@H](OC(C)=O)[C@@H]1C [rifapentine] ? False
